Source: ChEMBL document CHEMBL2062517

assay method text: Cytotoxicity against human TZM-b1 cells after 3 days by XTT assay
Format: cell-based
measurement conditions: TZM-b1 cells
readout name: CC50 at 72 h

1) Cc1nc(C(NC(=O)C(=O)Nc2ccc(Cl)cc2)C2CCNCC2)sc1CCO (racemic)    85.4 µM

COC(=O)[C@@H]1C[C@@H](NC(=O)C(=O)Nc2ccc(Cl)cc2)[C@H](c2ccccc2)N1 yielded CC50 at 72 h of > 99.6 µM

Cc1nc(C(NC(=O)C(=O)Nc2ccc(Cl)c(F)c2)C2CCCCN2)sc1CO (mixture of isomers) yielded CC50 at 72 h of 58.4 µM

Cc1nc(C(NC(=O)C(=O)Nc2ccc(F)cc2)C2CCCCN2)sc1CO (mixture of isomers) yielded CC50 at 72 h of > 90 µM

CCn1cc(NC(=O)C(=O)Nc2ccc(Cl)cc2)cn1 yielded CC50 at 72 h of 8 µM

Cc1ccc(NC(=O)C(=O)NC(c2nc(C)c(CCO)s2)C2CCCCN2)c(F)c1 (mixture of isomers) yielded CC50 at 72 h of > 78.8 µM

Cc1nc(C(NC(=O)C(=O)Nc2ccc(F)c(F)c2)C2CCCCN2)sc1CCO (mixture of isomers) yielded CC50 at 72 h of > 78.2 µM

Cc1nc(C(NC(=O)C(=O)NC2CCCCCC2)C2CCCCN2)sc1CO (mixture of isomers) yielded CC50 at 72 h of > 90 µM

Cc1nc(C(NC(=O)C(=O)Nc2ccc(Cl)cc2)C2CCCCN2)sc1CO (mixture of isomers) yielded CC50 at 72 h of > 22 µM

Cc1nc(C(NC(=O)C(=O)Nc2ccc(Cl)cc2)C2CCCNC2)sc1CCO (mixture of isomers) yielded CC50 at 72 h of 59.4 µM
